Field: IC50. Provide a value for each of the compounds that follow.
tested on: RAW264.7; experiment: Antiinflammatory activity in mouse RAW264.7 cells assessed as inhibition of LPS-stimulated PGE2 production pretreated for 30 mins followed by LPS challenge measured after 24 hrs by Ellman's method; assay type: functional, cell-based
Field: value (include unit after the number)

CC(C)=CCn1c2ccc(Br)c(=O)c-2nc2ccccc21 :: 0.89 µM

We now examine a further compound.
Entry under review: CC1=C(Cn2c3ccc(Br)c(=O)c-3nc3ccccc32)CCC(C)(C)C1 . Reported IC50?
7.5 µM
